Items are presented alongside their recorded IC50.
biological target: thrombin from human plasma (Homo sapiens, UniProt P00734); test: Km-based 96-well formatted fluorogenic thrombin inhibition assay
propertyLabel: IC50

CC1CNc2c(cccc2S(=O)(=O)NC(CCCN=C(N)N)C(=O)N2CCC(C)CC2C(=O)NCCCCCC(=O)O)C1 (centres unmarked)	~50 nM
CC1CNc2c(cccc2S(=O)(=O)NC(CCCNC(=N)N)C(=O)N2CCC(C)CC2C(=O)NCCCCCCCCCCCC(=O)O)C1 (centres unmarked)	~80 nM

* * *

target: thrombin from human plasma (Homo sapiens, UniProt P00734); test: Vmax-based thrombin inhibition assay (200 μM S-2238); type: biochemical; set-up: from tissue; host or cells: human plasma; conditions: 200 μM S-2238, 40 mU thrombin, pH 7.2, 25° C.
pIC50: −log10 of the molar value.
propertyLabel: pIC50

CC1CNc2c(cccc2S(=O)(=O)NC(CCCNC(=N)N)C(=O)N2CCC(C)CC2C(=O)NCCCCCCCCCCCC(=O)O)C1 (stereo not shown)	5.10 to 5.30
